All figures here come from patent US20230011571A1.

system: Marburg virus (MARV); experiment: organism not typed; format: cell-based; conditions: Vero, 72 h, read-out: Percent viral inhibition MARV
value-type: inhibition at 1 µM (%)
// note: answer is a bare numeric in %

For orientation, consider the following solved cases.
molecule | scale-unit | inhibition at 1 µM
COC(=O)NCC1CCN(Cc2cc(Oc3cnc(N4CCN(CCO)CC4)nc3)nc(-c3cc(Cl)cc(Cl)c3)c2)CC1 [Example 311] | % | 17.5
CN1CCN(c2ncc(Oc3cc(CN4CCC(CCO)CC4)cc(-c4cc(Cl)cc(Cl)c4)n3)cn2)CC1 [Example 52] | % | 29.9
CC(=O)NCC1CCN(Cc2cc(-c3cc(Cl)cc(Cl)c3)nc(Oc3ccc(N4CCNCC4)nc3)n2)CC1 [Example 90] | % | 75.5

Attention now shifts to the item below.
Task: May I ask what inhibition at 1 µM has been recorded for CNC(=O)NCC1CCN(Cc2cc(Oc3cnc(N4CCN(CCCS(N)(=O)=O)CC4)nc3)nc(-c3cc(Cl)cc(Cl)c3)c2)CC1 [Example 48] ?
Result: 15.7

---

test system: Marburg virus (MARV); test: organism not typed; assay type: cell-based; settings: Vero, 72 h, read-out: Percent viral inhibition MARV
Class 1: inhibition at 1 µM at least 40%. Class 0: inhibition at 1 µM below 40%.

given-smiles | label-value
CN1CCN(c2ncc(Oc3nc(-c4cc(Cl)cc(Cl)c4)cc(CN4CCC(CC(=O)O)CC4)c3F)cn2)CC1 | 1
CN1CCN(c2ccc(Oc3cc(CN4CCC(CC(=O)O)CC4)cc(-c4cc(Cl)cc(Cl)c4)n3)nn2)CC1 | 1
CS(=O)(=O)N[C@H]1[C@@H]2CCN(Cc3cc(Oc4cnc(N5CCN(CCC(=O)O)CC5)nc4)nc(-c4cc(Cl)cc(Cl)c4)c3)CC[C@@H]21 | 1
CC(=O)NCC1CCN(Cc2cc(Oc3cnc(N4CCN(C[C@@H](C)O)CC4)nc3)nc(-c3cc(Cl)cc(Cl)c3)c2)CC1 | 1
CN1CCN(c2ncc(Oc3cc(-c4cc(Cl)cc(Cl)c4)cc(CN4CCC(CC(=O)O)CC4)c3F)cn2)CC1 | 0

Proceed to the following item.
Task: Does the compound CN1CCN(c2ccc(Oc3cc(CN4CC[C@@H]5[C@H](CC4)[C@H]5C(=O)O)cc(-c4cc(Cl)cc(Cl)c4)n3)nn2)CC1 have recorded inhibition at 1 µM that is 40% or more?
Result: 1

---

test system: Marburg virus (MARV); experiment: organism not typed; assay type: cell-based; details: Vero, 72 h, read-out: Percent viral inhibition MARV
value-type: inhibition at 1 µM
Answer with the value and then the unit.

Solved entries (count: 2):
molecule | inhibition at 1 µM
CC(=O)NCC1CCN(Cc2cc(Oc3cnc(N4CCN(C)CC4)cn3)nc(-c3cc(Cl)cc(Cl)c3)c2)CC1 [Example 110] | 59.5%
CC(=O)NCC1CCN(Cc2cc(Oc3cnc(N4CCN(CCC(C)C(=O)O)CC4)nc3)nc(-c3cc(Cl)cc(Cl)c3)c2)CC1 (stereo not drawn) [Example 369] | 47.1%

Now examine the next entry.
Task: // lookup inhibition at 1 µM for CC(=O)N[C@H]1[C@@H]2CCN(Cc3cc(Oc4cnc(N5CCN(CCC(=O)O)CC5)nc4)nc(-c4cc(Cl)cc(Cl)c4)c3)CC[C@@H]21 [Example 367]
Result: 54.7%

---

tested on: Chikungunya virus (CHIKV); assay: microbe, parasite or virus in culture; type: cell-based; conditions: Chikungunya virus, Vero, 48 h, read-out: Percent viral inhibition CHKV
Reported values of inhibition at 1 µM for individual entries
Give just the number in %; leave the unit off.

compound | scale-unit | inhibition at 1 µM
O=C(O)CC1CCN(Cc2cc(Oc3ccc(N4CCN(CCO)CC4)nc3)nc(-c3cc(Cl)cc(Cl)c3)c2)CC1 | % | 18.2
CNC(=O)NCC1CCN(Cc2cc(Oc3cnc(N4CCN(C(C)CCS(C)(=O)=O)CC4)nc3)nc(-c3cc(F)cc(Cl)c3)c2)CC1 (stereo not shown) | % | 28.8
CC(=O)NCC1CCN(Cc2cc(Oc3ccc(N)cn3)cc(-c3cc(Cl)cc(Cl)c3)c2)CC1 | % | 0

Task: Reported inhibition at 1 µM for CC(=O)NCC1CCN(Cc2cc(Oc3cnc(N4CCN(CC(O)C(=O)O)CC4)nc3)nc(-c3cc(Cl)cc(Cl)c3)c2)CC1 (stereo not shown) : what is it?
Result: 30.6

---

test system: Marburg virus (MARV); assay: organism not typed; format: cell-based; settings: Vero, 72 h, read-out: Percent viral inhibition MARV
Hi, to clarify the labels: Met covers inhibition at 1 µM from 40% upward, Not met covers anything below 40%.

Task: # bool: inhibition at 1 µM of COC(=O)NCC1CCN(Cc2cc(Oc3cnc(N4CCN(C)CC4)nc3)nc(-c3cc(Cl)cc(Cl)c3)c2)CC1 >= 40%
Result: Not met

Task: Entry CNCc1cc(Oc2ccc(N3CCNCC3)nc2)cc(-c2cc(Cl)cc(Cl)c2)c1 : is its inhibition at 1 µM no less than 40%?
Result: Not met

Task: Has CC(=O)NCC1CCN(Cc2cc(Oc3ccc(N4CCN(CCC(=O)O)CC4)nc3)nc(-c3cc(F)cc(Cl)c3)c2)CC1 a recorded inhibition at 1 µM greater than or equal to 40%?
Result: Met

---

test system: Marburg virus (MARV); assay: organism not typed; type: cell-based; conditions: Vero, 72 h, read-out: Percent viral inhibition MARV
The molecules listed here are annotated with their inhibition at 1 µM.
Provide only the numeric value, understood in %.

Sample answers from the record:
given-smiles | inhibition at 1 µM / %
COCCN1CCN(c2ccc(Oc3cc(CN4CCC(CC(=O)O)CC4)cc(-c4cc(Cl)cc(Cl)c4)n3)cn2)CC1 | 61.4
CC(=O)NCC1CCN(Cc2cc(Oc3ccc(N4CCN(CCC(=O)O)CC4)nc3)nc(-c3cc(F)cc(Br)c3)c2)CC1 | 4.3

# evaluate next
Task: Which value of inhibition at 1 µM has been reported for COC(=O)NCC1CCN(Cc2cc(Oc3cnc(N4CCNCC4)nc3)nc(-c3cc(F)cc(Cl)c3)c2)CC1 in the records?
Result: 0

---

test system: Marburg virus (MARV); assay: organism not typed; format: cell-based; conditions: Vero, 72 h, read-out: Percent viral inhibition MARV
# if value of inhibition at 1 µM reaches 50%, tag y; if it stays below, tag n

Answered cases to consult:
compound | label-value
CNC(=O)NCC1CCN(Cc2cc(Oc3ccc(N4CCN(CCOC)CC4)nc3)nc(-c3cc(Cl)cc(Cl)c3)c2)CC1 | n
CNC(=O)CN1CCN(Cc2cc(Oc3ccc(N4CCNCC4)nc3)nc(-c3cc(Cl)cc(Cl)c3)c2)CC1 | n
CNC(=O)NCC1CCN(Cc2cc(Oc3ccc(N4CCN(CCC(=O)O)CC4)nc3)nc(-c3cc(Cl)cc(Cl)c3)c2)CC1 | n

Task: Could you tell me if the measured inhibition at 1 µM of O=C(O)CC1CCN(Cc2cc(Oc3cnc(N4CCN(Cc5cnn[nH]5)CC4)nc3)nc(-c3cc(Cl)cc(Cl)c3)c2)CC1 reaches 50% or more?
Result: n

Task: Does inhibition at 1 µM meet or surpass 50% for CNC(=O)OCC1CCN(Cc2cc(Oc3cnc(N4CCN(C[C@@H](C)O)CC4)nc3)nc(-c3cc(Cl)cc(Cl)c3)c2)CC1 ?
Result: n

Task: Check this compound for inhibition at 1 µM at or above 50%: NC1(CCO)CCN(c2ncc(Oc3cc(CN4CCC(CC(=O)O)CC4)cc(-c4cc(Cl)cc(Cl)c4)n3)cn2)CC1
Result: y

Task: // inclusive: inhibition at 1 µM at least 50%? input: C[C@@H](O)CN1CCN(c2ncc(Oc3cc(CN4CCC(CC(=O)O)CC4)cc(-c4cc(Cl)cc(Cl)c4)n3)cn2)CC1
Result: y

Task: Is reported inhibition at 1 µM greater than or equal to 50% here: CNC(=O)CCN1CCN(c2ncc(Oc3cc(CN4CCC(CNC(C)=O)CC4)cc(-c4cc(Cl)cc(Cl)c4)n3)cn2)CC1
Result: y

Task: Can CC(CCO)N1CCN(c2ncc(Oc3cc(CN4CCC(CC(=O)O)CC4)cc(-c4cc(Cl)cc(Cl)c4)n3)cn2)CC1 (stereo not drawn) be said to have inhibition at 1 µM at or above 50%?
Result: y

Task: Please indicate if the recorded inhibition at 1 µM for O=C(O)CC1CCN(Cc2cc(Oc3cnc(N4CCN(C5CC5)CC4)nc3)nc(-c3cc(Cl)cc(Cl)c3)c2)CC1 meets or exceeds 50%.
Result: y

Task: Is inhibition at 1 µM at least 50%? Consider O=C(O)CC1CCN(Cc2cc(Oc3cnc(N4CCN(C5CC(O)C5)CC4)nc3)nc(-c3cc(Cl)cc(Cl)c3)c2)CC1 (stereo not drawn)
Result: y

Task: inhibition at 1 µM >= 50% for CC(O)CCN1CCN(c2ncc(Oc3cc(CN4CCC(F)CC4)cc(-c4cc(Cl)cc(Cl)c4)n3)cn2)CC1 (stereo not drawn) ?
Result: y

Task: Identify whether the reported inhibition at 1 µM of the following compound is 50% or greater: CC(=O)NCC1CCN(Cc2cc(Oc3ccc(N4CCN(CCN(C)S(C)(=O)=O)CC4)nc3)nc(-c3cc(Cl)cc(Cl)c3)c2)CC1
Result: y

Task: Does the reported inhibition at 1 µM for CC(=O)NCC1CCN(Cc2cc(Oc3ccc(N4CC[N+](CCO)(CCO)CC4)nc3)nc(-c3cc(Cl)cc(Cl)c3)c2)CC1 fall at or above the 50% mark?
Result: n

Task: Hi, just wondering whether CC(=O)NCC1CCN(Cc2cc(Oc3cnc(N4CCN(CCS(C)(=O)=O)CC4)nc3)cc(-c3cc(Cl)cc(Cl)c3)c2)CC1 shows inhibition at 1 µM of 50% or higher.
Result: n

Task: Has CN1CCN(c2ncc(Oc3cc(CN4CCC(P(C)(C)=O)CC4)cc(-c4cc(Cl)cc(Cl)c4)n3)cn2)CC1 a recorded inhibition at 1 µM greater than or equal to 50%?
Result: y

Task: Reported inhibition at 1 µM at or above 50%? CN1CCN(c2cnc(Oc3cc(CN4CCC(OC5(C(=O)O)CC5)CC4)cc(-c4cc(Cl)cc(Cl)c4)n3)cn2)CC1
Result: n

Task: Would you say O=C(O)CC1CCN(Cc2cc(Oc3cnc(N4CCN(C(CO)CO)CC4)nc3)nc(-c3cc(Cl)cc(Cl)c3)c2)CC1 shows inhibition at 1 µM at minimum 50%?
Result: y

Task: // inclusive: inhibition at 1 µM at least 50%? input: CC(=O)NCC1CCN(Cc2cc(Oc3ccc(N4CCN(CCc5nnn[nH]5)CC4)nc3)nc(-c3cc(Cl)cc(Cl)c3)c2)CC1
Result: n

Task: Threshold query (inhibition at 1 µM >= 50%) on C[C@H](CC1CCN(Cc2cc(Oc3ccc(N4CCN(C)CC4)nn3)nc(-c3cc(Cl)cc(Cl)c3)c2)CC1)C(=O)O
Result: n

Task: Given CNC(=O)NCC1CCN(Cc2cc(Oc3cnc(N4CCN(CC(C)C(=O)O)CC4)nc3)cc(-c3cc(Cl)cc(Cl)c3)c2)CC1 (stereo not drawn) , state whether its inhibition at 1 µM is at least 50%.
Result: y

Task: For this compound, is measured inhibition at 1 µM 50% or higher? COCCN1CCN(c2ccc(Oc3cc(CN4CCC(CNC(C)=O)CC4)cc(-c4cc(Cl)cc(Cl)c4)n3)cn2)CC1
Result: n

Task: Could you verify whether the entry COC(=O)NCC1(F)CCN(Cc2cc(Oc3cnc(N4CCN(CCC(=O)O)CC4)nc3)nc(-c3cc(Cl)cc(Cl)c3)c2)CC1 shows inhibition at 1 µM of no less than 50%?
Result: n

Task: Dear colleague, could you confirm whether CN1CCN(c2ncc(Oc3cc(CN4CCC(CCC(=O)O)CC4)cc(-c4cc(Cl)cc(Cl)c4)n3)cn2)CC1 has inhibition at 1 µM at or above 50%?
Result: n
